# Test system: CCRF-CEM leukemia
# assay_summary: NCI-60 one-dose screen, 48 h (100 = growth as untreated, 0 = no growth, -100 = all killed)
# details: 10 µM unless noted
Compounds without any hit were thinned out: in the full panel of roughly 83,000, 20% have a hit.
Kindly return rule met if reported growth is no lower than 50%; return rule not met if it is lower.

Known results for compounds:
CC(=O)O[C@]1(C)C[C@H](O)[C@]2(O)C=CO[C@H](O[C@@H]3O[C@H](CO)[C@@H](O)[C@H](O)[C@H]3O)[C@@H]21 :: rule met
COc1ccc2c(CCCc3ccc(Cl)cc3Cl)c3[n+](cc2c1OC)CCc1cc2c(cc1-3)OCO2 :: rule not met
O=C(c1ccc(/C=C/c2n[nH]c3ccccc23)cc1)N1CCNCC1 :: rule met
CCN1/C(=C/C=C/c2n(-c3ccccc3)c3ccc(-c4nc5ccccc5s4)cc3[n+]2CC)N(c2ccccc2)c2ccc(-c3nc4ccccc4s3)cc21 :: rule not met

Quick check: does O=C(O)c1ccc2c(c1)nc(Nc1cccc(Cl)c1)c1ccncc12 have growth greater than or equal to 50%?
rule not met

Is the recorded value of growth equal to or greater than 50% for this compound? CC(C)(C)C(=O)OCOP(=O)(OCOC(=O)C(C)(C)C)C1CCCN(OC(=O)c2ccccc2)C1=O (stereo not given)
rule not met

State whether the measured growth reaches 50%, counting equality as reaching it, for O=C(O)C1(Cc2cccc(Nc3nccs3)n2)CCC(Oc2cccc(Cl)c2F)CC1 (stereo not given)
rule met

Quick check: does Cc1nn(-c2nc3ccccc3[nH]2)c2c1C(c1ccc(OCc3ccc(F)cc3)cc1)CC(=O)N2 (stereo not given) have growth greater than or equal to 50%?
rule met

Evaluate CO[C@H](C(=O)N[C@@H](CCCCNC(=O)OCc1ccccc1)C(=O)OC(C)(C)C)[C@@H]1Cc2cc3cc(OC4CC(OC5CC(O)C(O)C(C)O5)C(O)C(C)O4)c(C)c(O)c3c(O)c2C(=O)[C@H]1OC1CC(OC2CC(OC3CC(C)(O)C(O)C(C)O3)C(O)C(C)O2)C(O)C(C)O1 (stereo not given in full) : growth at minimum 50%?
rule not met

Given the entry Cc1csc(-c2nnc(Nc3ccc(Oc4ncccc4-c4ccnc(N)n4)cc3)c3ccccc23)c1 , answer whether its growth meets or surpasses 50%.
rule not met
